- TEST_TARGET: Tyrosine-protein kinase Lck (Homo sapiens) (UniProt P06239);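 also: reported Lck percent inhibition is a mean value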
- Sequence (P06239 2-509 limits assumed): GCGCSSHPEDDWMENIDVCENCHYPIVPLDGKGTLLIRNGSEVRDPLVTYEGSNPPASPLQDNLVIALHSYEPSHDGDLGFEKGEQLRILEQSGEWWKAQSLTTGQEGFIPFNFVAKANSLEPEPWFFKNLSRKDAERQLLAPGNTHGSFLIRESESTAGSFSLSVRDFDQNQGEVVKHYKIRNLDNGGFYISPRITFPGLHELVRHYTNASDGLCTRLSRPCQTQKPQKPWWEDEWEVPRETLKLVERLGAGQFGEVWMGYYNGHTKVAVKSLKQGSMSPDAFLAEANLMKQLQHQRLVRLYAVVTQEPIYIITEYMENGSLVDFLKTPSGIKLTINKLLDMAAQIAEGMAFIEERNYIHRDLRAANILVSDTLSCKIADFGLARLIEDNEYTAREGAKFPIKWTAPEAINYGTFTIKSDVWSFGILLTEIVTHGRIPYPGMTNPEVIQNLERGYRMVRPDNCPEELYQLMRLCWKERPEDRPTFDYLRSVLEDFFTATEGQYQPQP
- TEST_PARAMETERS: at 1 µM
RECORDED_ENDPOINT: inhibition (%)
Value expressed in %; do not type the unit.

Using known records, supply inhibition for CCn1c(-c2nonc2N)nc2c(C#CC(C)(C)O)nc(OC[C@@H](N)c3ccccc3)cc21
0.18

Using known records, supply inhibition for CS(=O)(=O)Nc1ccc(N/C=C2\C(=O)Nc3ccccc32)cc1
5.83

Using known records, supply inhibition for O=C1NC(=O)C(N2CCc3ccccc32)=C1c1ccc(Cl)cc1
4.29

Using known records, supply inhibition for CN(C)c1cc2c(Nc3ccc4nc(Cc5ccccc5)[nH]c4c3)ncnc2cn1
33

Using known records, supply inhibition for CS(=O)(=O)CCNCc1nc(-c2ccc3ncnc(Nc4ccc(F)c(Cl)c4)c3c2)cs1
20

Using known records, supply inhibition for CC(=O)Nc1cccc(C#Cc2cncnc2Nc2ccc(OCc3cccc(F)c3)c(Cl)c2)n1
1.84

Using known records, supply inhibition for COC(=O)Nc1nc2cc(Oc3ccc(NC(=O)Nc4cccc(C(=O)O)c4)cc3)ccc2[nH]1
-2.81

Using known records, supply inhibition for Fc1cccc(COc2ccc(Nc3ncnc4cc(-c5ccc[nH]5)sc34)cc2Cl)c1
2.29

Using known records, supply inhibition for N#Cc1c(NC(=O)c2cccc3ccccc23)sc2c1CCCC2
4.35

Using known records, supply inhibition for CCn1c(-c2nonc2N)nc2ccncc21
2.29

Using known records, supply inhibition for CCn1c(-c2nonc2N)nc2c(C#CC(C)(C)O)nc(CN3CCCC3)cc21
1.3

Using known records, supply inhibition for COc1cc(C)c(NC(=O)CN(C)C)cc1Nc1nc(Nc2cccc(F)c2C(N)=O)c2cc[nH]c2n1
1.74

Using known records, supply inhibition for NCc1ccc(-c2nc(-c3ccc(Cl)c(O)c3)c(-c3ccncc3)[nH]2)cc1
33

Using known records, supply inhibition for Cc1cc(O)cc(C)c1/C=C/c1cncc(-c2nn[nH]n2)c1
42.5

Using known records, supply inhibition for Fc1cccc(COc2ccc(Nc3ncnc4sc(-c5cccs5)cc34)cc2Cl)c1
3.56

Using known records, supply inhibition for Cc1nn(C)c2cc(N(C)c3ccnc(Nc4cccc(S(N)(=O)=O)c4)n3)ccc12
57.4

Using known records, supply inhibition for CC1=C(C(=O)Nc2ccc3[nH]ncc3c2)C(c2ccc3ccccc3c2)CC(=O)N1 (stereo unspecified)
64.3

Using known records, supply inhibition for NS(=O)(=O)c1cccc(-c2ccc3c(NC(=O)C4CC4)n[nH]c3c2)c1
3.43

Using known records, supply inhibition for CCn1c(-c2nonc2N)nc2cnc(Oc3cccc(NC(=O)c4ccc(OCCN5CCOCC5)cc4)c3)cc21
4.63

Using known records, supply inhibition for CS(=O)(=O)CCN(CC#N)Cc1ccc(-c2ccc3ncnc(Nc4ccc(OCc5cccc(F)c5)c(Cl)c4)c3c2)o1
-3.92

Using known records, supply inhibition for [O-][S+]1CCN(Cc2ccc(-c3ccc4ncnc(Nc5ccc(OCc6ccccc6)c(F)c5)c4c3)o2)CC1
7.89
